test: surface tension by Du Noüy ring method, Krüss K20 EasyDyne tensiometer; assay type: physicochemical; details: 7.5 % w/w solvent in water, room temperature
Lab note: compare Surface tension with 60 dynes/cm, writing rule met if less and rule not met if equal or more.

Answered cases to consult:
Exercise: Identify whether the compound CC1COC(=O)O1 (stereo not shown) [Propylene Carbonate, propylene carbonate] records Surface tension below 60 dynes/cm.
Solution: rule met

Exercise: And CCOCCOCCO ?
Solution: rule met

Next:
Exercise: Is the reported Surface tension for OCCCO strictly below 60 dynes/cm?
Solution: rule not met

###

Kindly supply the reported Surface tension values for the records listed here.
assay: surface tension by Du Noüy ring method, Krüss K20 EasyDyne tensiometer; type: physicochemical; details: 22.5 % w/w solvent in water, room temperature
Give bare numbers, in dynes/cm.

Below are worked cases with known answers.
Exercise: For the compound OCCCO [1,3-Propanediol, 1,3-propanediol] , what Surface tension is on record?
Solution: 58.2

Exercise: Likewise for CC(C)O [Isopropyl Alcohol, isopropyl alcohol] ?
Solution: 28.1

Exercise: What do you have for CCOCCOCCO [Ethoxy Diglycol NF, ethoxydiglycol] ?
Solution: 43.1

Exercise: Continue with CO[C@H]1CO[C@H]2[C@@H]1OC[C@H]2OC [Dimethyl Isosorbide, dimethyl isosorbide]
Solution: 40.5

Exercise: // next record CCO [Ethanol (200 proof), ethanol]
Solution: 36.6

Next item in the queue.
Exercise: Entry CC(O)CO (stereo not drawn) [Propylene Glycol USP, propylene glycol] has what Surface tension?
Solution: 54.1

###

assay: surface tension by Du Noüy ring method, Krüss K20 EasyDyne tensiometer; assay type: physicochemical; settings: 5 % w/w solvent in water, room temperature
Field: Surface tension. Provide a value for each of the molecules that follow.
Answers are plain numbers, in dynes/cm.

Exercise: Please report the recorded Surface tension for CO[C@H]1CO[C@H]2[C@@H]1OC[C@H]2OC [Dimethyl Isosorbide, dimethyl isosorbide] .
Solution: 52.8

Exercise: Follow-up entry: CC1COC(=O)O1 (stereo not shown) [Propylene Carbonate, propylene carbonate]
Solution: 56.8

Exercise: Next molecule: CCO [Ethanol (200 proof), ethanol]
Solution: 55.9

Exercise: Record: CCOCCOCCO [Ethoxy Diglycol NF, ethoxydiglycol]
Solution: 56.8

Exercise: Repeat with CC(O)CO (stereo not shown) [Propylene Glycol USP, propylene glycol]
Solution: 65.9

Exercise: Input CC(C)O [Isopropyl Alcohol, isopropyl alcohol]
Solution: 47.3

---
Exercise: I am curious: what Surface tension value has been reported for OCCCO [1,3-Propanediol, 1,3-propanediol] ?
Solution: 64.6

###

assay: surface tension by Du Noüy ring method, Krüss K20 EasyDyne tensiometer; format: physicochemical; details: 17.5 % w/w solvent in water, room temperature
Rule: Surface tension under 50 dynes/cm gives class 0, otherwise class 1.

Would you please look over these solved cases?
Exercise: Could you tell me if the measured Surface tension of CC1COC(=O)O1 (stereo not shown) [Propylene Carbonate, propylene carbonate] reaches 50 dynes/cm or more?
Solution: class 0

Exercise: Field entry: CC(O)CO (stereo not shown)
Solution: class 1

Exercise: What would you report for CCO ?
Solution: class 0

Exercise: Field entry: OCCCO
Solution: class 1

Exercise: Please answer likewise for CO[C@H]1CO[C@H]2[C@@H]1OC[C@H]2OC [Dimethyl Isosorbide, dimethyl isosorbide]
Solution: class 0

More entries:
Exercise: Would you say CC(C)O shows Surface tension at minimum 50 dynes/cm?
Solution: class 0

Exercise: Then this compound: CCOCCOCCO
Solution: class 0
